system.tested: OR2M7 (Homo sapiens) (UniProt Q8NG81)
Sequence (whole entry): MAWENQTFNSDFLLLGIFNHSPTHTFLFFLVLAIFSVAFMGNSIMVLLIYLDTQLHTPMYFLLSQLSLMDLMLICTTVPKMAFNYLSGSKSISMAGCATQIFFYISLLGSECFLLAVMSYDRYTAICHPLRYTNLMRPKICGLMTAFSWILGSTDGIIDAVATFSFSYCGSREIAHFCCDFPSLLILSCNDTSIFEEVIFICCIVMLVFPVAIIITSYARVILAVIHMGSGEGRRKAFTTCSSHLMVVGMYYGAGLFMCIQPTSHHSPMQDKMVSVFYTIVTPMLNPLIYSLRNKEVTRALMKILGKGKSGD
test.conditions: stereoisomer not certain
Use one of these outcomes when replying: 1 = active, 0 = inactive

Before answering, review these 10 worked examples.
• O=C(c1ccccc1)c1ccccc1 = 0
• CCCC(C)=O = 0
• CCCCCO = 0
• CC1CCCCCCCCCCCCC(=O)C1 (configuration not stated) = 0
• CCC(=O)C(=O)CC = 0
• C=CCOC(=O)CCCCCC = 0
• CC(=O)OCc1ccccc1 = 0
• CCCCCCCO = 0
• CCCCCCCC(C)=O = 0
• CCCCCCOC(C)=O = 0

Q: What did the test return for "CCCCC(=O)CC" ?
Ans: 0

Q: Hey, what did the test say about "CCCCCCCCC(=O)O" ?
Ans: 0

Q: Which outcome was entered for the compound CC(CO)CS (configuration not stated) in this test?
Ans: 0

Q: What call does the record list for CCC1OC(=O)C(O)=C1C (configuration not stated) ?
Ans: 0

Q: Would you mind telling me which call this test gave CC12CCC(CC1=O)C2(C)C (configuration not stated) ?
Ans: 0
